- Measured on: T1, recombinant BTLA-Fc protein (B and T lymphocyte attenuator) (UniProt Q7Z6A9 31-137)
- T1 construct: B and T lymphocyte attenuator (BTLA); source: recombinant
- T1 sequence: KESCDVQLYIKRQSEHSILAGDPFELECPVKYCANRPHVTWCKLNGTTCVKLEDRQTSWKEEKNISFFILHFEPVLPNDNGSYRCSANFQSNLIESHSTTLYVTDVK
- Assay: SPR; Biacore T100, CM5 chip; BTLA-Fc coupled by EDC/NHS; peptides injected at 30 µL/min in PBS with 2% DMSO; static (fast dissociation) or kinetic (slow dissociation) model
- Experimental setup: both partners purified
Experimental endpoint: Kd
The reply must contain the numeric value and, after it, the unit.

Ac-YRVKPACGELTGTVCFP-NH2 (cysteine pairing not given here, HVEM residues 23-39 with the DP2 mutations E27P and E38F; also called extended DP2 (17 aa); source: synthetic peptide (SPPS, Fmoc; Jiangsu Shenlang Biotech)) [DP2-E1]
3.04 mM
Ac-ESCPKCSPGYRVKPACGELTGTVCFP-NH2 (cysteine pairing not given here, HVEM residues 14-39 with the DP2 mutations E27P and E38F; also called extended DP2 (26 aa); source: synthetic peptide (SPPS, Fmoc; Jiangsu Shenlang Biotech)) [DP2-E2]
1.46e-06 mM
Ac-ESCPKCSPGYRVKEACGELTGTVCEP-NH2 (cysteine pairing not given here) [P0-E2]
0.0941 mM
Ac-YRVKEACGELTGTVCEP-NH2 (cysteine pairing not given here) [P0-E1]
9.93 mM

Could you now look at the following binder, please?
Request: // returns reported Kd for input Ac-KPACGELTGTVCF-NH2 (cysteine pairing not given here, HVEM residues 26-38 with E27P and E38F; source: synthetic peptide (SPPS, Fmoc; Jiangsu Shenlang Biotech)) [DP2 E27P E38F]
Result: 1.75 mM

Value source: paper PMC8234244
